This collection of values is drawn from PubChem BioAssay AID1159580.

assay: chemical genetic growth profiling, strain panel (AID 1159580);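 further: tested at 20 µM; growth read once vehicle control cultures reached saturation at 30 °C; 1 = growth at the plate median or of vehicle wells; lower values mean less growth of the strain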; conditions: S. cerevisiae deletion strains, growth OD, locus YDL101C, strain DUN1, stronger effect = lower value
Screen size: about 5,500 compounds; about 2,000 (36%) were called active. Another 18% or so got no clear call; they are omitted. This is one part of the list.
Assignment: determine reported normalized growth for the given compounds.
Lab note: jot down the number only; don't add units.

State its normalized growth for this compound: c1cncc(C2CCCCN2)c1 (stereo unspecified)
1.01

State its normalized growth for this compound: `CN1CCC(=C2c3ccccc3CC(=O)c3sccc32)CC1`
1.02

Look up and state reported normalized growth for `O=S(=O)(Nc1cccc2nsnc12)c1cc(Cl)sc1Cl`
0.962

Quickly give me recorded normalized growth for `CC(C)(C)c1ccc(-c2nc(-c3cc(C(C)(C)C)c(O)c(C(C)(C)C)c3)cs2)cc1`
1.02

Read the entry `CCOC(=O)c1cc(C)nc(Sc2ccccc2)c1C#N` and write its reported normalized growth.
0.897

Return normalized growth for the following compound: `O=S(=O)(Nc1cccc2cccnc12)c1cc(Cl)c(Cl)cc1Cl`
1.02

Item `CC(C)(C)c1cc(-c2csc(-c3ccc(Cl)cc3)n2)cc(C(C)(C)C)c1O` : provide normalized growth
1.02

Tell us which normalized growth value is on record for C[C@]12CC(=O)C3C(CC[C@@H]4C[C@H](O)CC[C@]34C)C1CC[C@]2(O)C(=O)CO (stereo partly specified)
0.996

Give the reported normalized growth for this compound. `CCOC(=O)COc1nc(-c2cccs2)cc(C(F)(F)F)c1C#N`
0.963

Note down normalized growth recorded for `O=S(=O)(Nc1cccc(CCc2ccccn2)c1)c1cc(Cl)c(Cl)cc1Cl`
0.973

Specify normalized growth for CCOC(=O)C(=O)C1(C(=O)OCC)Oc2cc(OC)cc(OC)c2C(=O)C1c1ccccc1 (stereo unspecified) and stop.
0.959
